So I've got a bunch of compounds here, and I need their No. of mice living on the 8th day values.
Test system: Staphylococcus aureus No. 54,146
Assay: In vivo activity in mice experimentally infected with Staphylococcus aureus No. 54,146
Details: dose 1mg oral, 1,5 and 24 hours after infection; groups of 10 mice
Method: The test was effected with the compounds of the invention and erythromycin as a reference on groups of 10 mice weighing about 21 g experimentally infected with Staphylococcus aureus No. 54,146 by intraperitoneal administration of 0.5 ml of a 22 hour culture of the said organism in bouillon with a pH of 7 diluted to 1/6 with physiological water. The test compounds were orally administrated to the mice 1,5 and 24 hours after the infection and the mortality on the 8th day was determined.
Report as: number unit

According to the records, this compound CCOCCOCON=C1[C@H](C)C[C@@](C)(O)[C@H](O[C@@H]2O[C@H](C)C[C@H](N(C)C)[C@H]2O)[C@@H](C)[C@H](O[C@H]2C[C@@](C)(OC)[C@@H](O)[C@H](C)O2)[C@@H](C)C(=O)O[C@H](CC)[C@@](C)(O)[C@H](O)[C@H]1C displays No. of mice living on the 8th day of 10 mice

Record summary for CC[C@H]1OC(=O)[C@H](C)[C@@H](O[C@H]2C[C@@](C)(OC)[C@@H](O)[C@H](C)O2)[C@H](C)[C@@H](O[C@@H]2O[C@H](C)C[C@H](N(C)C)[C@H]2O)[C@](C)(O)C[C@@H](C)C(=O)[C@H](C)[C@@H](O)[C@]1(C)O : reported No. of mice living on the 8th day = 9 mice

According to the records, this compound CCOCCON=C1[C@H](C)C[C@@](C)(O)[C@H](O[C@@H]2O[C@H](C)C[C@H](N(C)C)[C@H]2O)[C@@H](C)[C@H](O[C@H]2C[C@@](C)(OC)[C@@H](O)[C@H](C)O2)[C@@H](C)C(=O)O[C@H](CC)[C@@](C)(O)[C@H](O)[C@H]1C displays No. of mice living on the 8th day of 9 mice

Form field No. of mice living on the 8th day, entry CC[C@H]1OC(=O)[C@H](C)[C@@H](O[C@H]2C[C@@](C)(OC)[C@@H](O)[C@H](C)O2)[C@H](C)[C@@H](O[C@@H]2O[C@H](C)C[C@H](N(C)C)[C@H]2O)[C@](C)(O)C[C@@H](C)C(=NOCCN2CCOCC2)[C@H](C)[C@@H](O)[C@]1(C)O : 10 mice

Record summary for CC[C@H]1OC(=O)[C@H](C)[C@@H](O[C@H]2C[C@@](C)(OC)[C@@H](O)[C@H](C)O2)[C@H](C)[C@@H](O[C@@H]2O[C@H](C)C[C@H](N(C)C)[C@H]2O)[C@](C)(O)C[C@@H](C)C(=NOCC(OC)OC)[C@H](C)[C@@H](O)[C@]1(C)O : reported No. of mice living on the 8th day = 10 mice

Where do the numbers come from? From patent US4349545A.
